assay: qHTS of pediatric cancer cell lines to identify multiple opportunities for drug repurposing: Primary screen for A673 cells (AID 1347092); conditions: A673 Ewing sarcoma viability, CellTiter-Glo ATP luminescence, 48 h; series mostly up to 46 µM; also: nearly all actives have a fitted effect of over 45% in size
Results filed as inconclusive are left out. Active and inactive are the calls of the source. Calls follow the shape of the dose curve; as a rule, active = well fitted cell-killing curve with a large enough effect; inconclusive = small, poorly fitted or top-dose-only effect; inactive = no such curve, though single readings can be large or run the other way.
Possible outcomes: Y (active), N (inactive)

# entry-smiles, category
data = [
    ("CC(C)C[C@@H](C(=O)N[C@H](C(=O)OC1CCCC1)c1ccccc1)[C@H](O)C(=O)NO", "Y"),
    ("C#C[C@]1(O)CC[C@H]2[C@H]3CCc4cc(OC)ccc4[C@H]3CC[C@@]21C", "Y"),
    ("COc1ccc(-c2oc3c(CC=C(C)C)c(O)cc(O)c3c(=O)c2O)cc1", "Y"),
    ("CC(C)(O)CC(=O)NCCn1ccc2ncnc(Nc3ccc(Oc4cccc(C(F)(F)F)c4)c(Cl)c3)c21", "Y"),
    ("CCC(=C(c1ccc(O)cc1)c1ccc(OCCNC)cc1)c1ccccc1", "Y"),
    ("CCC[C@@H](NC(=O)[C@@H]1[C@H]2CCC[C@@H]2CN1C(=O)[C@@H](NC(=O)[C@@H](NC(=O)c1cnccn1)C1CCCCC1)C(C)(C)C)C(=O)C(=O)NC1CC1", "N"),
    ("CNC(=O)c1ccc2c(C(=Nc3cccc(CN(C)C)c3)c3ccccc3)c(O)[nH]c2c1", "Y"),
    ("Cc1csc(-c2nnc(Nc3ccc(Oc4ncccc4-c4ccnc(N)n4)cc3)c3ccccc23)c1", "Y"),
]
